Provide the reported MIC of each item.
- System: Klebsiella aerogenes
- assay.info: Antimicrobial activity against carbapenem-resistant Enterobacter aerogenes PU41 deficient in CTX-M-14, DHA-1, qnrS1, ompC DEc, ompF by CLSI method
- Assay type: functional

NCC[C@H](O)C(=O)N[C@@H]1C[C@H](N)[C@@H](O[C@H]2O[C@H](CN)[C@@H](O)[C@H](O)[C@H]2O)[C@H](O)[C@H]1O[C@H]1O[C@H](CO)[C@@H](O)[C@H](N)[C@H]1O has a reported MIC of > 256 µg/mL

// CO/N=C(\C(=O)N[C@@H]1C(=O)N2C(C(=O)O)=C(COC(C)=O)CS[C@H]12)c1csc(N)n1 : MIC value = > 256 µg/mL

MIC reading for CO[C@@]1(NC(=O)Cc2cccs2)C(=O)N2C(C(=O)O)=C(COC(N)=O)CS[C@@H]21 : > 256 µg/mL

* * *

- Tested on: Enterobacter cloacae
- assay.info: Antimicrobial activity against carbapenem-resistant Enterobacter cloacae GX56 deficient in ompC and expressing low levels of ompF DE by CLSI method
- Type: functional
Assign MIC to each entry below.

The observed MIC for CO[C@@]1(NC(=O)Cc2cccs2)C(=O)N2C(C(=O)O)=C(COC(N)=O)CS[C@@H]21 when tested with Enterobacter cloacae stands at > 256 µg/mL

Form: item NCC[C@H](O)C(=O)N[C@@H]1C[C@H](N)[C@@H](O[C@H]2O[C@H](CN)[C@@H](O)[C@H](O)[C@H]2O)[C@H](O)[C@H]1O[C@H]1O[C@H](CO)[C@@H](O)[C@H](N)[C@H]1O ; test system Enterobacter cloacae; MIC: > 256 µg/mL

Case CO/N=C(\C(=O)N[C@@H]1C(=O)N2C(C(=O)O)=C(COC(C)=O)CS[C@H]12)c1csc(N)n1 , Enterobacter cloacae, MIC recorded as > 256 µg/mL

* * *

- Test system: Escherichia coli
- assay.info: Antimicrobial activity against carbapenem-resistant Escherichia coli ZJ86 expressing KPC-2, TEM-1 with ompC loss by CLSI method
readout.label: MIC
Please provide the amount together with its unit, number first.

MIC for CO[C@@]1(NC(=O)Cc2cccs2)C(=O)N2C(C(=O)O)=C(COC(N)=O)CS[C@@H]21 is 64 µg/mL

Record summary for CC(C)(O/N=C(\C(=O)N[C@@H]1C(=O)N2C(C(=O)[O-])=C(C[n+]3ccccc3)CS[C@H]12)c1csc(N)n1)C(=O)O : reported MIC = 32 µg/mL

// C[C@@H](O)[C@H]1C(=O)N2C(C(=O)O)=C(S[C@@H]3CN[C@H](C(=O)N(C)C)C3)[C@H](C)[C@H]12 : MIC value = 8 µg/mL

What the record says about CN(C)c1cc(NC(=O)CNC(C)(C)C)c(O)c2c1C[C@H]1C[C@H]3[C@H](N(C)C)C(O)=C(C(N)=O)C(=O)[C@@]3(O)C(O)=C1C2=O : MIC is 0.25 µg/mL

* * *

- System: Citrobacter freundii
- assay.info: Antimicrobial activity against Citrobacter freundii SZ63T expressing IMP-4, qnrS1by CLSI method
- Format: functional
readout.label: MIC

// field: MIC; key: NCC[C@H](O)C(=O)N[C@@H]1C[C@H](N)[C@@H](O[C@H]2O[C@H](CN)[C@@H](O)[C@H](O)[C@H]2O)[C@H](O)[C@H]1O[C@H]1O[C@H](CO)[C@@H](O)[C@H](N)[C@H]1O ; value = > 256 µg/mL

// MIC value for CO[C@@]1(NC(=O)Cc2cccs2)C(=O)N2C(C(=O)O)=C(COC(N)=O)CS[C@@H]21 : > 256 µg/mL

What the record says about CC(C)(O/N=C(\C(=O)N[C@@H]1C(=O)N2C(C(=O)[O-])=C(C[n+]3ccccc3)CS[C@H]12)c1csc(N)n1)C(=O)O : MIC is > 256 µg/mL

Data origin, for the record: ChEMBL document CHEMBL1212738
